Read-out record for Tyrosinase (Agaricus bisporus, UniProt O42713): IC50
TEST_READOUT: IC50 (µM)

a = O=c1oc2c(O)cc(Br)cc2cc1-c1ccc(O)cc1
b = CCOc1cccc2cc(-c3ccccc3)c(=O)oc12
**Q:** Could you determine which record has the numerically smaller IC50? Candidates: a and b Reply briefly: the label of your chosen item.
**A:** a
